- ASSAY_TARGET: angiopoietin-2 (Ang2) (human, UniProt O15123 19-496)
- Sequence (O15123 19-496): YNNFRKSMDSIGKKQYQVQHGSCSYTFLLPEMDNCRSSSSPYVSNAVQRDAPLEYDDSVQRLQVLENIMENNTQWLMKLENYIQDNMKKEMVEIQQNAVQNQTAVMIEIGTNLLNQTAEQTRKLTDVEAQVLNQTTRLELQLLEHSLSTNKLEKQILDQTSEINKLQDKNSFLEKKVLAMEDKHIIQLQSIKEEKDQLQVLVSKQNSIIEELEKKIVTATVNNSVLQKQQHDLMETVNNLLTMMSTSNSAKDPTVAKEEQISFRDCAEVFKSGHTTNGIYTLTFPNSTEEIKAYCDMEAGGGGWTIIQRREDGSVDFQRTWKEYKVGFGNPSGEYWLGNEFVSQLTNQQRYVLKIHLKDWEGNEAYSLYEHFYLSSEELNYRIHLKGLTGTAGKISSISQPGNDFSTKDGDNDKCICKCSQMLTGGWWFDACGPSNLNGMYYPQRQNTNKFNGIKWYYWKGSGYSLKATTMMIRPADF
- PROCEDURE_TEXT: bead-based fluorescence assay
READOUT_TYPE: Kd (nM)
Give just the numeric value; nM need not be written.

Request: Provide measured Kd value, entry: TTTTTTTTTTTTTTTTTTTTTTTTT (ssDNA) [25T linker]
Response: 210
